targetOrSystem: T1, recombinant biotinylated human PAR2 extracellular domain (residues 1-75), N-terminal AviTag, C-terminal Flag … (human, UniProt P55085 26-75, biotin on the AviTag (enzymatic biotinylation))
T1 construct: also called Bio-human-PAR2 ECD; human PAR2 ECD; not shown: N-terminal AviTag (Avidity LLC); C-terminal Flag and poly Histidine tags
T1 sequence (P55085 26-75): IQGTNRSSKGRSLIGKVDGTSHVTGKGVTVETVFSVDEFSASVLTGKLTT
assayProcedure: HTRF competition with Dylight650-Par0067 IgG, IgG
readout: Fold IC50 pH 7.4 (Variant v Par0067) (fold)

>>> datavalue("PaB670142 IgG (antibody, V domains shown, IgG1-TM (L234F, L235E, P331S), human lambda light chain) VH: EVQLLESGGGLVQPGGSLRLSCAASGFTFSSYAMNWVRQAPGKGLEWVSTISYSGSLISYADSVKGRFTISRDNSKNTLYLQMNSLRAEDTAVYYCARIHHDPMDVWGQGTLVTVSS VL: SIELTQPPSVSVSPGQTASITCSGDNLGKKYVQWYQQKPGQSPVLVIYDDSNRPSGIPERFSGSNSGNTATLTISGTQAMDEADYYCQTWDGNPTHGETNVFGGGTKLTVL")
5.7
>>> datavalue("Par0067 IgG (antibody, V domains shown, IgG1-TM (L234F, L235E, P331S), human lambda light chain; also called ZZ15D2-D02; parent Par0067 IgG) VH: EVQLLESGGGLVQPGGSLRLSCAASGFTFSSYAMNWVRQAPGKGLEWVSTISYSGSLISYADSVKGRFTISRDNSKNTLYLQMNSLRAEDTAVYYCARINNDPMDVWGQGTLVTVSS VL: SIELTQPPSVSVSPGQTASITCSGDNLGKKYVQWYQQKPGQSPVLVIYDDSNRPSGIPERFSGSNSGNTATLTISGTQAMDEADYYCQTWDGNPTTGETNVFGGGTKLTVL")
1
